Source: ChEMBL document CHEMBL1137358

- testDetails: Stability in human liver microsome
- settings: liver microsomes
Consider the cut-off 2 h. If the recorded half-life is strictly smaller, the label is Satisfied; if not, the label is Not satisfied.

Completed entries (count: 4):
[[record]]
smilesdata = "c1ccc(-c2ccsc2)cc1"
classname = "Not satisfied"

[[record]]
smilesdata = "NCc1ccc(-c2cccnc2)o1"
classname = "Satisfied"

[[record]]
smilesdata = "CC(=O)SCc1ccc(-c2cccnc2)o1"
classname = "Satisfied"

[[record]]
smilesdata = "c1cncc(-c2cc[nH]n2)c1"
classname = "Satisfied"


With those in mind, consider the next compound.
QUERY: Input `c1cncc(-c2ccc(C3SCCS3)o2)c1` ; condition: half-life strictly below 2 h. Does it hold?
RESULT: Satisfied
